Data provenance: patent US20220306744A1

# TARGET OR TEST SYSTEM: T1, human PD-1 expressed on cells (CHO TREX human PD1 cell line, full-length human PD-1 sequence) (human, UniProt Q15116 21-288)
# T1 construct: Also used for human PD-1 on Jurkat reporter cells, on PathHunter cells and on PHA-stimulated human CD4+ T cells; also called CHO human PD1 cells; CHO human PD-1 cells
# T1 sequence (Q15116 21-288): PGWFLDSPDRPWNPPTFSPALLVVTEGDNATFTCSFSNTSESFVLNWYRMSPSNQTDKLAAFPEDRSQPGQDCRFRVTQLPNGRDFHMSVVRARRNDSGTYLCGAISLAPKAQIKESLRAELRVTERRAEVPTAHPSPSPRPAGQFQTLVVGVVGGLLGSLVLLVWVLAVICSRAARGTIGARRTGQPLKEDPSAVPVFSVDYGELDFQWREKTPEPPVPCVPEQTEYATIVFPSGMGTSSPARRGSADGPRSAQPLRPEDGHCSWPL
# EXPERIMENT DESCRIPTION: worded summary of the screens
REPORTED PROPERTY: binding result

Example binders with recorded binding result:
# BINDER, binding result
measured = [
    ("1.15b (VHH) VHH: QVQLVESGGGLVKPGGSLRLSCAASGFTFSDNSMSWIRQAPGKGLEWVSYISSSGSTIYYADSVKGRFTISRDNAKNSLYLQMNTLRAEDTAVYYCAKEAPLRLGESPHDAFDIWGQGTMVTVSS", "binds"),
    ("1.75b (VHH) VHH: EVQLVESGGGLVKPGGSLRLSCAASGFTFSDSSMTWIRQAPGKGLEWVSYISSGGGVKFYTDSVKGRFTISRDNAKNSLYLQMNSLRAEDTAVYYCAREAPLRLGESPHDAFDISGQGTMVTVSS", "binds"),
    ("1.81b (VHH) VHH: EVQLVESGGGLVKPGGSLRLSCAASGFTFSDSSMTWVRQAPGKGLEWVSYISSGGGVKFYADSVKGRFTISRDNAKNSLYLQMNSLRAEDTAVYYCAREAPLRLGESPHDAFDISGQGTMVTVSS", "binds"),
    ("1.59a (VHH) VHH: QVQLVESGGGVVRPGGSLRLSCAASGFTFDDYAMSWVRQAPGKGLEWVSGISWNGGSKGYADSVKDRFTISRDNAKNSLYLQMNSLRAEDTALYYCARDPYSGAWSYDAFDIWGQGTMVTVSS", "binds"),
    ("1.107b (VHH) VHH: EVQLVESGGGLVKPGGSLRLSCAASGFTFSDESYTWMRQAPGKGLEWVSYISSGGGVKFYTDSVKGRFTISRDNAKNSLYLQMNSLRAEDTAVYYCAREAPLRLGESPHDAFDISGQGTMVTVSS", "binds"),
    ("1.37b (VHH) VHH: QVQLVESGGGLVKPGGSLRLSCAASGFTFSDYTMTWMRQAPGKGLEWVSYISTGGSIKYYTDSVKGRFTISRDNAKNSLFLQMNSLRADDTAVYYCAREAPLRLGESPHDAFDIWGQGTMVTVSS", "binds"),
]

The reported value for 1.115b (VHH) VHH: EVQLVESGGGLVKPGGSLRLSCAASGFTFSDESGTWMRQAPGKGLEWVSYISSGGGVKFYADSVKGRFTISRDNAKNSLYLQMNSLRAEDTAVYYCAREAPLRLGESPHDAFDISGQGTMVTVSS in terms of binding result is binds

response.value for 1.41a (VHH) VHH: EVQLVESGGGLVQPGRSLRLSCAASGFTFDDYAFHWVRQAPGKDLEWVSGISWNGGSYGYADSVKGRFTISRDNAKNSLYLQMNSLRAEDTALYYCVREKGPGLTGSTADYYGLDAWGQGTMVTVSS (field: binding result) = binds
